Hello, the source for this data is the supplement of paper PMC10567573, in case you need it.

- Assay procedure: protein stability index of a GFP-peptide fusion (GPS, HEK-293T) (PSI 1-6); higher = more stable;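 further: 24-mer peptide tiles fused after GFP, lentivirally expressed, FACS-sorted into six equal bins by GFP/DsRed ratio, decoded by Illumina sequencing, PSI is the read-weighted mean bin number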
- Measurement parameters: treatment: DMSO; c terminus: a fixed tail appended
Outcome label depends on protein stability index relative to 3: at/above gives yes (1), below gives no (0).

Worked set:
>>> group_label("KHGFSWAVPKFMKRIKVPDYKDRS [DLC1]")
"no (0)"
>>> group_label("LQRLDFSVRGYMMSKQRERQLRRR [RETREG3]")
"yes (1)"
>>> group_label("HECKLTQEILELIDREVDLMMRGV [IQUB]")
"no (0)"

Test whether the sequence LCPSRAELDRWLYHLEKQTALLGG [PLEKHN1] records protein stability index of 3 or higher. no (0)

What would you report for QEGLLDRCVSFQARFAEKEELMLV [HDAC6] ? no (0)

Another sequence: EDEEEEEGGEGEKEGEGEVGGEAV [TRIM55] yes (1)

Same question for KQLEFCFSRENLSKDLYLISQMDS [LARP4] please. no (0)

Similarly, SFQGCMAQLFMDHLFAGAEVILLV [OR4A15] ? yes (1)

Item: EEEDEILPRKDYESLDYDRCINDP [CLCN6] yes (1)
